Recorded values, source the supplement of paper PMC10065799.

- target_under_test: MERTK (UniProt Q12866)
- Sequence (Q12866 whole entry, looked up): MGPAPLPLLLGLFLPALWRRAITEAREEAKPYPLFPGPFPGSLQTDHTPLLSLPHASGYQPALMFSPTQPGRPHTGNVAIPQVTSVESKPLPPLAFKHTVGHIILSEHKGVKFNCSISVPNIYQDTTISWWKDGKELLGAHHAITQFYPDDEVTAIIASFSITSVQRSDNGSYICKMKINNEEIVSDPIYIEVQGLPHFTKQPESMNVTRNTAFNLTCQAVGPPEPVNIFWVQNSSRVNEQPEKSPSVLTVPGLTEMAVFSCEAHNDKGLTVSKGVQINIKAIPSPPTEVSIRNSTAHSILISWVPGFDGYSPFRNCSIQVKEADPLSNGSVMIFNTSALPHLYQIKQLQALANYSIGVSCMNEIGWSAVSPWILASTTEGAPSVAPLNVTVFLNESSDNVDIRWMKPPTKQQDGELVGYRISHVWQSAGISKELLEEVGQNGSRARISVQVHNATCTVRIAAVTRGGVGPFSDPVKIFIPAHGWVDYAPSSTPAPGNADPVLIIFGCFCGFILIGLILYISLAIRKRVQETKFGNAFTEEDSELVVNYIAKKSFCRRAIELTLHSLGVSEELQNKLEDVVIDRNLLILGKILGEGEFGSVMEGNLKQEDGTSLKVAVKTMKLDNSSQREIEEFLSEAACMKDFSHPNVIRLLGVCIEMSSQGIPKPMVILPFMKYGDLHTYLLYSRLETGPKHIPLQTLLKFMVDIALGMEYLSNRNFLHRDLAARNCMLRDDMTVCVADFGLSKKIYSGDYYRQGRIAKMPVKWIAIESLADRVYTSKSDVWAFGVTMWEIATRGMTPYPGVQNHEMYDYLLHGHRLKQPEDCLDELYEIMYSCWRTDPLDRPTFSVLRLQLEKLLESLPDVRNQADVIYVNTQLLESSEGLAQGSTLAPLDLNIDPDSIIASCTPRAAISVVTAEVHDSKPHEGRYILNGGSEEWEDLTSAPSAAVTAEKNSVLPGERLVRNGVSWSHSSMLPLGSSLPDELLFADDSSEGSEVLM
- protocol_notes: phosphorylation enrichment, bacterial display (enrichment ratio); higher = better substrate or ligand; peptides without Tyr show the background;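 note: 11-residue human phosphosite peptides and single-mutation variants displayed on the E. coli surface, counted by deep sequencing, each peptide's frequency after selection divided by its frequency in the unselected input library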;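 note: frequency after pTyr selection over input frequency; kinase dosed for 20-30% of maximal phosphorylation in three min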
measured_endpoint: phosphorylation enrichment
Respond with the number and no other words.

Give the measured phosphorylation enrichment of FFLGKYLQEVL [KLB_Y910_YF] .
0.391

Give the measured phosphorylation enrichment of RAFRRYLLKQK [SCN2A_Y1919_YF] .
0.971

====

- target_under_test: EPHB2 (UniProt P29323)
- Sequence (P29323 whole entry, looked up): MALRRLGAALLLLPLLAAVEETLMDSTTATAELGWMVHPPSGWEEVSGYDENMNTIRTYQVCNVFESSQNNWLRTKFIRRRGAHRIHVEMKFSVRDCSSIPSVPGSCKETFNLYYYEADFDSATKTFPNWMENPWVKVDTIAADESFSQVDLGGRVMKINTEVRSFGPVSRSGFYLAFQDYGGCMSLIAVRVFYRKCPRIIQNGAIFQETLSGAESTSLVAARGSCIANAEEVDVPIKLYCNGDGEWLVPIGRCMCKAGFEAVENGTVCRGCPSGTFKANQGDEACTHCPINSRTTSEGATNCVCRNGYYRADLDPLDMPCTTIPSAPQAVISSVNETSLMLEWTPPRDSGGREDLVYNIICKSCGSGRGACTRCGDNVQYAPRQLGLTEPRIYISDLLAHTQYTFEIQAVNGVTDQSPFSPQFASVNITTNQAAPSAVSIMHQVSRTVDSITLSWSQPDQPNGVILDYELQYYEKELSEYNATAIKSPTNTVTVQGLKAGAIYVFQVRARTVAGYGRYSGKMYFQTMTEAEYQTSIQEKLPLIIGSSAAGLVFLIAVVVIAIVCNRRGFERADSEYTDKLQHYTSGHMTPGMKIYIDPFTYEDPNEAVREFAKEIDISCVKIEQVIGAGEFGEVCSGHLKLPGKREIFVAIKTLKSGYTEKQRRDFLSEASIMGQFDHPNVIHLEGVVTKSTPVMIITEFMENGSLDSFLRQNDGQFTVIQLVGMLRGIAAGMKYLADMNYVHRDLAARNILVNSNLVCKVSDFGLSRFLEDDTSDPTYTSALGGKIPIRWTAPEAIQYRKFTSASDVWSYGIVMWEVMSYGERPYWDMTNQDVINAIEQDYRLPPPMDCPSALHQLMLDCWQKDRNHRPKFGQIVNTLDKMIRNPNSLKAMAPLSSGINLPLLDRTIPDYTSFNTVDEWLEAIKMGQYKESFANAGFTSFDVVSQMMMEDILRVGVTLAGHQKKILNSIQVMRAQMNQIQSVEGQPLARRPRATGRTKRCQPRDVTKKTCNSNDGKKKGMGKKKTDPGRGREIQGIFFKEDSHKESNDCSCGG
- protocol_notes: phosphorylation enrichment, bacterial display (enrichment ratio); higher = better substrate or ligand; peptides without Tyr show the background
Listing of recorded phosphorylation enrichment by entry.
Respond with the number and no other words.

Here's what some known entries look like.
RVFRDYVLKSA [HTATIP2_Y111_D108Y_YF]: 0.533
WNNLDYMDSRR [GAA_Y407_D404N]: 0.821
SWDKRYCEAGF [ITGA2B_Y197]: 0.692
YQKDVYDIPPS [NEDD9_Y177]: 3.2
ALVLQYLRVPL [F9_Y371]: 0.5
YIGVTYKNKED [PDGFRA_Y993_E996K]: 0.505
TRSYDYMEGED [FGF7_Y58_G62E]: 0.634
ASENVYVNIAH [CTSC_Y150]: 0.924

Give the measured phosphorylation enrichment of SSVAGYACLAF [MVD_Y131_A128V_YF] .
0.537

Give the measured phosphorylation enrichment of IRTIDYRFTVC [IDS_Y497_W502C_YF] .
0.579

Give the measured phosphorylation enrichment of HLVLNYGVCFC [JAK2_Y613_V617F] .
2.33

Give the measured phosphorylation enrichment of DFDHSYFFIAT [ESD_Y262_G257D_YF] .
0.606

====

- target_under_test: EPHB2 (UniProt P29323)
- protocol_notes: phosphorylation enrichment, bacterial display (enrichment ratio); higher = better substrate or ligand; peptides without Tyr show the background
measured_endpoint: phosphorylation enrichment
Respond with the number and no other words.

Here's what some known entries look like.
VKANTYEKFWL [GATM_Y100_P105L_YF]: 0.545
VRSTEYPCAGL: 0.483
GCVRMYELVHR [GLE1_Y135]: 3.69
KLLLKYSFHDA [RNF213_Y4141_V4146A]: 0.615
SLAARYYNWVS [FLT4_Y1230]: 0.83
RRIHSYRGFLW [VHL_Y112_H115Y_YF]: 1.73
GESLTYVSTTF [C1orf162_Y120_A121V]: 0.563
FDFKKYGKGLR [ZNF445_Y433_YF]: 0.436
DFFDLYGGKKF [PTPN11_Y66_E69K_YF]: 0.519
VAVVDYVEPSP [TXNRD2_Y70]: 0.776

Turning now to a further sequence:
Find phosphorylation enrichment (EPHB2 (UniProt P29323)) for the entry TLQWMYGCDVG [HLA-B_Y123_S121W]
0.661

====

Listing of recorded phosphorylation enrichment by entry.
- System: AncSZ
- protocol_notes: phosphorylation enrichment, bacterial display (enrichment ratio); higher = better substrate or ligand; peptides without Tyr show the background
Respond with the number and no other words.

GTTIHYNFMCN [TP53_Y234_C229G_YF]: 1.12

Give the measured phosphorylation enrichment of LFHENYNAGTY [CFI_Y421_I416L] .
1.06

Give the measured phosphorylation enrichment of LWQTIYNLEAE [TNNT2_Y251_S249T] .
1.56

Give the measured phosphorylation enrichment of PSGPTYRGAVP [ASAH1_Y43] .
0.772

Give the measured phosphorylation enrichment of KENITYMKREQ [L1TD1_Y24] .
0.827

Give the measured phosphorylation enrichment of KEIHAYRKLLE [LMNA_Y376_M371K] .
0.63

Give the measured phosphorylation enrichment of FTRNFYVWAVL [CYBA_Y88_R90W_YF] .
1.25
